Tested on: UACC-62
Test: NCI tumour cell line growth inhibition, 48 h
The source made the active and inactive calls. No stated cut-off is given here; in the data, active = GI50 up to about 1.1 µM and inactive = higher.
Possible outcomes: Y (active), N (inactive)

- compound: "Cc1[nH]n(C2=NCCN2)c(=O)c1Cc1ccccc1"
  category label: "N"
- compound: "CC1=CCC[C@H]2[C@](C)(CC3=CC(=O)C(Sc4ccccc4)=CC3=O)[C@@H](C)CC[C@]12C"
  category label: "N"
- compound: "O=C1Nc2ccccc2/C1=C/c1c(Cl)[nH]c2ccc(O)cc12"
  category label: "Y"
- compound: "C/N=c1/oc2ccccc2cc1C(N)=O"
  category label: "N"
- compound: "Oc1cc(-c2cccc(C(F)(F)F)c2)nc2cc3c(cc12)OCO3"
  category label: "N"
- compound: "CCO/C=N/NC(=O)CSc1nc2ccc(I)cc2c(=O)n1Cc1ccccc1"
  category label: "N"
- compound: "Cc1c2cc[n+](CCN3CCCCC3)cc2c(C)c2c1[nH]c1ccc(O)cc12"
  category label: "N"
- compound: "Cc1ccc(/N=N/C(=O)NNc2ccc(C)c([N+](=O)[O-])c2)cc1[N+](=O)[O-]"
  category label: "N"
- compound: "CC(C)NC(=O)OCc1c(COC(=O)NC(C)C)c(-c2ccc[n+](COC(=O)Cc3ccccc3)c2)n2c1CCC2"
  category label: "N"
- compound: "CC1=CC(=O)NP(=O)(Oc2ccc(Cl)cc2)N1 (stereo not given)"
  category label: "N"
- compound: "COc1cc2c(cc1OC)[C@]1(O)C(=O)c3ccc4c(c3O[C@@H]1CO2)C[C@H](C(C)(C)O)O4"
  category label: "N"
- compound: "C=C1CC[C@@]2(OC1)OC1C[C@H]3[C@@H]4CC=C5C[C@@H](O)CC(OC6OCC(OC(=O)[C@@H](O)[C@@H](C)CC)C(OC(C)=O)C6OC6OC(C)C(O)C(O)C6O)[C@]5(C)[C@H]4CC[C@]3(C)C1[C@@H]2C (stereo not given in full)"
  category label: "N"
- compound: "NC(=O)NC1C(C(N)=O)N(Cc2ccccc2)C(=O)N1Cc1ccccc1 (stereo not given)"
  category label: "N"
- compound: "COC(=O)CC1c2ccccc2N2C(=O)Cc3c([nH]c4ccccc34)C12 (stereo not given)"
  category label: "N"
- compound: "Nc1nc(N)c(N=O)c(OCC2CCCCC2)n1"
  category label: "N"
- compound: "COC(=O)/C(=N\\Nc1nnc(C)n1N)C(C#N)c1ccc(Cl)cc1 (stereo not given)"
  category label: "N"
- compound: "O=C(CN(Cc1ccccc1)Cc1ccccc1)N1CCc2c([nH]c3ccccc23)C1c1cccnc1 (stereo not given)"
  category label: "N"
- compound: "C/C(=N\\Nc1ccc([N+](=O)[O-])cc1[N+](=O)[O-])c1ccc2ccccc2n1"
  category label: "N"
- compound: "C#CCC(O)c1ccccc1C(O)CC#C (stereo not given)"
  category label: "N"
- compound: "c1ccc(Nc2nnc(Cn3ccc4ccccc43)s2)cc1"
  category label: "N"
